Test: Substrate specificities of KAZ mutants (ZZ-fused, crude enzyme), 6h-f-CTZ
Format: biochemical
Conditions: 1 μg substrate, integrated for 60 seconds
property label: Relative Luminescence Activity 6h-f-CTZ Int.

molecule	result number
KAZ-V44I-A54I-Y138I: KAZ mutant with three amino acid substitutions V44I, A54I and Y138I, SEQ ID NO: 16 (protein) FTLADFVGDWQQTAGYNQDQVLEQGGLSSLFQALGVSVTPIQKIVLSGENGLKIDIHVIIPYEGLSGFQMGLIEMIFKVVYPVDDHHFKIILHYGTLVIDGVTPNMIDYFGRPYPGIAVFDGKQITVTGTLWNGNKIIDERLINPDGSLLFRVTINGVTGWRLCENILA	9.6

Attribution: patent US10907134B2
